system: Relaxin receptor 1 (Mus musculus)
Sequence (Q6R6I7 whole entry): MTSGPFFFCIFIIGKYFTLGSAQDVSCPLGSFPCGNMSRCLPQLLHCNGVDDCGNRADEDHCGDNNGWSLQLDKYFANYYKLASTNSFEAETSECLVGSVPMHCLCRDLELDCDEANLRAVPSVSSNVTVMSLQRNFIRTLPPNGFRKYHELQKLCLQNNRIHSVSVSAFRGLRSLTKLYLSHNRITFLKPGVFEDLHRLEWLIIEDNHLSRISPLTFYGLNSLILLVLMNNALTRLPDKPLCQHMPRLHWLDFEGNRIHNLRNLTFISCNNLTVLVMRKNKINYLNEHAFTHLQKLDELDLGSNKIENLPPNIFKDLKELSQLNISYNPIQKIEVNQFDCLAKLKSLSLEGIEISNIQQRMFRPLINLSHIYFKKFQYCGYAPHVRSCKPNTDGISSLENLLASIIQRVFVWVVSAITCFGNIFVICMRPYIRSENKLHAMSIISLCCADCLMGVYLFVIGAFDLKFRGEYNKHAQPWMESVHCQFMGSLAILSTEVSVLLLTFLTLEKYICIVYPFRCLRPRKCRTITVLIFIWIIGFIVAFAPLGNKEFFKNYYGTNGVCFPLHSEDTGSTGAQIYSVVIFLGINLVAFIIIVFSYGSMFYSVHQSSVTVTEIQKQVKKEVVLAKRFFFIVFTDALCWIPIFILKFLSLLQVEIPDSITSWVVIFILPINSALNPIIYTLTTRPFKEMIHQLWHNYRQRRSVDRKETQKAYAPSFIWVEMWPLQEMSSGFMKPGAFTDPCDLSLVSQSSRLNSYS
assay_comment: Agonist activity at mouse RXFP1 stably expressed in HEK293 cells assessed as intracellular cAMP accumulation incubated for 30 mins by HTRF assay
Type: functional, cell-based
pEC50: −log10 of the molar value.
Please enter yes (1) where pEC50 is greater than or equal to 6, and no (0) where it is lower.

Observe how each entry below is paired with its result.
molecule: COc1ccc(-c2cncnc2)cc1C(=O)N[C@H]1[C@@H](C(=O)Nc2ccc(F)c(C(F)(F)F)c2)[C@H]2CC[C@@H]1C2=C(C)C
qualitative_label: no (0)

molecule: CNC(=O)OC(C(=O)O)c1ccc(F)c(-c2ccc(OC)c(C(=O)N[C@H]3[C@@H](C(=O)Nc4ccc(F)c(C(F)(F)F)c4)[C@H]4CC[C@@H]3/C4=C\C3CC3)c2)c1 (stereo in doubt; 39)
qualitative_label: yes (1)

molecule: COc1ccc(-c2cc(C(=O)O)ccc2OC)cc1C(=O)N[C@H]1[C@@H](C(=O)Nc2ccc(F)c(C(F)(F)F)c2)[C@H]2CC[C@@H]1C2=C(C)C
qualitative_label: no (0)

molecule: COc1ccc(-c2cncn2C)cc1C(=O)N[C@H]1[C@@H](C(=O)Nc2ccc(F)c(C(F)(F)F)c2)[C@H]2CC[C@@H]1C2=C(C)C
qualitative_label: no (0)

molecule: COc1ccc(-c2cc(C(=O)O)ccc2F)cc1C(=O)N[C@H]1[C@@H](C(=O)Nc2ccc(F)c(C(F)(F)F)c2)[C@H]2CC[C@@H]1/C2=C\C1CC1
qualitative_label: yes (1)

Request: Quick check: does COc1ccc(-c2cc(C(=O)O)ccc2F)cc1C(=O)N[C@H]1[C@@H](C(=O)Nc2ccc(F)c(C(F)(F)F)c2)[C@H]2CC[C@@H]1/C2=C\c1cnoc1 have pEC50 greater than or equal to 6?
Result: yes (1)

Request: Check the entry COc1ccc(-c2cc(C(=O)O)ccc2F)cc1C(=O)N[C@H]1[C@@H](C(=O)NCc2ccccc2C(F)(F)F)[C@H]2CC[C@@H]1/C2=C\C1CC1 : does pEC50 equal or exceed 6?
Result: no (0)

Request: Reported pEC50 reaches at least 6 for COc1ccc(-c2cc(C(=O)O)ccc2C)cc1C(=O)N[C@H]1[C@@H](C(=O)Nc2ccc(F)c(C(F)(F)F)c2)[C@H]2CC[C@@H]1C2=C(C)C ?
Result: no (0)

Request: Dear colleague, could you confirm whether COc1ccc(-c2cccnc2)cc1C(=O)N[C@H]1[C@@H](C(=O)Nc2ccc(F)c(C(F)(F)F)c2)[C@H]2CC[C@@H]1C2=C(C)C has pEC50 at or above 6?
Result: no (0)

Request: Confirm if pEC50 reported for the molecule COc1ccc(-c2ccncc2)cc1C(=O)N[C@H]1[C@@H](C(=O)Nc2ccc(F)c(C(F)(F)F)c2)[C@H]2CC[C@@H]1C2=C(C)C is 6 or above.
Result: no (0)

====

system: Relaxin receptor 1 (Rattus norvegicus)
Sequence (Q6R6I6 whole entry): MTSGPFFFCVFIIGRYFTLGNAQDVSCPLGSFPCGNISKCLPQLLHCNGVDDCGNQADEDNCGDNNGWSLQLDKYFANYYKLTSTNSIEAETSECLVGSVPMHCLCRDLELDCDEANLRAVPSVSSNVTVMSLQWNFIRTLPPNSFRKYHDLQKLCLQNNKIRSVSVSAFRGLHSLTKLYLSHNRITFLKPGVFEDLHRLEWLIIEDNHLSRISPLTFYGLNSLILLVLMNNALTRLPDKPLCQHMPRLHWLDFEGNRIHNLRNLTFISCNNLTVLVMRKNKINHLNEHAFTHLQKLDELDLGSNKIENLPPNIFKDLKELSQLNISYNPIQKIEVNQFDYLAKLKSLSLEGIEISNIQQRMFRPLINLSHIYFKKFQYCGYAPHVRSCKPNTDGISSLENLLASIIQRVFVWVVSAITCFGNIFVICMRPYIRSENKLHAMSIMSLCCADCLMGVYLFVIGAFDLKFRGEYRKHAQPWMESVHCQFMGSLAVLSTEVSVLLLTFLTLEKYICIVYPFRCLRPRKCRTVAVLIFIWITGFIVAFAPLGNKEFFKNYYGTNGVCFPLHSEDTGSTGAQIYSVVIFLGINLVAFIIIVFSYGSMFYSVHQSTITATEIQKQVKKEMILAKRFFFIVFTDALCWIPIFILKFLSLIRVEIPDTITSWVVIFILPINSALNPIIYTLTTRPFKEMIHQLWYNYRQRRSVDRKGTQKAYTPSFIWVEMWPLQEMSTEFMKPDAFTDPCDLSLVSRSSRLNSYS
assay_comment: Agonist activity at rat RXFP1 stably expressed in HEK293 cells assessed as intracellular cAMP accumulation incubated for 30 mins by HTRF assay
Assay type: cell-based
Criterion: EC50 strictly less than 900 nM. Met: true (1). Not met: false (0).

molecule: CNC(=O)OC(C(=O)O)c1ccc(F)c(-c2ccc(OC)c(C(=O)N[C@H]3[C@@H](C(=O)Nc4ccc(F)c(C(F)(F)F)c4)[C@H]4CC[C@@H]3/C4=C\c3cnoc3)c2)c1 (some centres not stated)
system: Relaxin receptor 1 (Rattus norvegicus)
qualitative_label: true (1)
//
molecule: COc1ccc(-c2cc(CC(=O)O)ccc2F)cc1C(=O)N[C@H]1[C@@H](C(=O)Nc2ccc(F)c(C(F)(F)F)c2)[C@H]2CC[C@@H]1/C2=C\c1cnoc1
system: Relaxin receptor 1 (Rattus norvegicus)
qualitative_label: false (0)

Request: Report whether reported EC50 is lower than 900 nM (strictly) for COc1ccc(-c2cc(C(O)C(=O)O)ccc2F)cc1C(=O)N[C@H]1[C@@H](C(=O)Nc2ccc(F)c(C(F)(F)F)c2)[C@H]2CC[C@@H]1/C2=C\c1cnoc1 (some centres not stated)
Result: false (0)

Request: # TODO verify EC50 < 900 nM strictly for this molecule: CNC(=O)OC(C(=O)O)c1ccc(F)c(-c2ccc(OC)c(C(=O)N[C@H]3[C@@H](C(=O)Nc4ccc(F)c(C(F)(F)F)c4)[C@H]4CC[C@@H]3/C4=C\C3CC3)c2)c1 (stereo in doubt; 39)
Result: true (1)

Request: For CNC(=O)OC(C(=O)O)c1ccc(F)c(-c2ccc(OC)c(C(=O)N[C@H]3[C@@H](C(=O)Nc4ccc(F)c(C(F)(F)F)c4)[C@H]4CC[C@@H]3/C4=C\C3CC3)c2)c1 (stereo in doubt; 40) , is the recorded EC50 below the cut-off of 900 nM?
Result: true (1)
